Data origin, for the record: ChEMBL document CHEMBL5126607

PROCEDURE SUMMARY: Solubility of the compound in FeSSIF
ENDPOINT LABEL: solubility (µg/mL)
Give just the numeric value; µg/mL need not be written.

Per the record, Cc1nc(C)n(CC(=O)N2CCN(c3sc(C(F)(F)F)nc3-c3cnc(C(F)(F)F)nc3)C[C@H]2C)n1 has solubility of 530

---

Would you mind telling me the reported bioavailability of each entry?
PROCEDURE SUMMARY: in vivo
CONDITION CONTEXT: Wistar, rat, po, 2 mg/kg
Give just the numeric value; % need not be written.

Per the record, CCOc1ncc(-c2nc(C(F)(F)F)sc2N2CCN(C(=O)Cn3nc(C)nc3C)[C@H](C)C2)cn1 has bioavailability of 52

Per the record, Cc1nc(C)n(CC(=O)N2CCN(c3sc(C(F)(F)F)nc3-c3cnc(OC(C)C)nc3)C[C@H]2C)n1 has bioavailability of 89

Per the record, C[C@@H]1CN(c2sc(C(F)(F)F)nc2-c2nc3ccccc3[nH]2)CCN1C(=O)Cn1cnc2cccnc21 has bioavailability of 7

Per the record, Cc1nc(C)n(CC(=O)N2CCN(c3sc(C(F)(F)F)nc3-c3cnc(C(F)(F)F)nc3)C[C@H]2C)n1 has bioavailability of 80
